From: the supplement of paper PMC7125110

B1: glmS ribozyme (parent)
chain: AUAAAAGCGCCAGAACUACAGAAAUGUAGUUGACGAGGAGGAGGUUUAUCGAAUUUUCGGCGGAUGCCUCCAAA

- Variants of: B1
- test-summary: KM; higher = weaker cofactor use; RNA array
- experimental-context: with glucosamine-6-phosphate
Lab note: compare KM against 2000 µM. Equal or greater, write T. Smaller, write F.

input: // inclusive: KM at least 2000 µM? input: C16G A53C
output: F
